Could you please report measured growth for the items listed next?
- System: TK-10 renal
- Assay Procedure: NCI-60 one-dose screen, 48 h (100 = growth as untreated, 0 = no growth, -100 = all killed)
- Measurement Setup: 10 µM unless noted
The panel holds about 83,000 compounds, 20% with a hit somewhere; the sample as a whole holds those more often.
One number for each entry, in %.

COC(=O)C1OC(Oc2ccc(N(CCCl)CCCl)cc2)C(OC(C)=O)C(OC(C)=O)C1OC(C)=O (stereo not drawn)	92.5
C[C@]12CCc3sc(NCCc4ccccc4)nc3C1=CC[C@@H]1[C@@H]2CC[C@]2(C)C(=O)CC[C@@H]12	91.3

Please fill in: growth reported for "CC(C)(NC(=O)O[C@@H]1CN2CCC1CC2)c1csc(-c2ccc(F)cc2)n1" = 91.9

* * *

- Test system: SK-OV-3 ovarian
- Assay Procedure: NCI-60 one-dose screen, 48 h (100 = growth as untreated, 0 = no growth, -100 = all killed)
- Measurement Setup: 10 µM unless noted
Compounds without any hit were thinned out: in the full panel of roughly 83,000, 20% have a hit.
Tick Fulfilled if growth is 60% or greater. Tick Not fulfilled if growth is less than 60%.

Some solved entries appear below for comparison.
COc1ccc(Nc2ccnc3cc(Cl)ccc23)cc1CN(CCCl)CCCl	Not fulfilled
CO[C@H]1CC[C@@]2(C)C(=CC[C@@H]3[C@@H]2CC[C@]2(C)C(=O)C(=O)C[C@@H]32)C1	Fulfilled
Oc1c(CCl)cc(Cl)cc1CCl	Fulfilled
C[n+]1c(/C=C/c2ccc(N(CCCl)CCCl)cc2)sc2ccccc21	Not fulfilled
COc1ccc([As]=[As]c2ccc(OC)c(NCS(=O)(=O)O)c2)cc1NCS(=O)(=O)O (centres undefined)	Fulfilled

Incoming: Determine whether this compound has growth no lower than 60%: "CC[C@]12C=CCN3CC[C@@]4(c5ccc(OC)cc5N(C)[C@H]4[C@@](O)(C(=O)OC)[C@@H]1OC(=O)CCCC[P+](c1ccccc1)(c1ccccc1)c1ccccc1)[C@@H]32"
Outgoing: Not fulfilled

Incoming: Determine whether this compound has growth no lower than 60%: "COC(=O)[C@@H](C)C[C@H](Cc1ccccc1)NC(=O)c1cccc([C@@H](C[C@H](C(C)C)N(C)C(=O)[C@@H](NC(=O)[C@H]2CCCCN2C)C(C)C)OC(C)=O)n1"
Outgoing: Not fulfilled

* * *

- System: UACC-62 melanoma
- Assay Procedure: NCI-60 one-dose screen, 48 h (100 = growth as untreated, 0 = no growth, -100 = all killed)
- Measurement Setup: 10 µM unless noted
Compounds without any hit were thinned out: in the full panel of roughly 83,000, 20% have a hit.
# label = y if growth < 50% else n

COc1ccc(/C=C\c2cc(OC)c(OC)c(OC)c2)cc1OCC(=O)Nc1nc2ccc(OC(F)(F)F)cc2s1	y
COc1ccc2c(c1)c(C1(O)CC(CSC#N)OC1=O)cn2C(=O)c1ccc(Cl)cc1 (stereo not given)	n
COC(=O)[C@@H](C)C[C@H](Cc1ccccc1)NC(=O)c1cccc([C@@H](C[C@H](C(C)C)N(C)C(=O)[C@@H](NC(=O)[C@H]2CCCCN2C)C(C)C)OC(C)=O)n1	y

Incoming: Please let me know if "CCC(=O)Nc1ccc(Cl)c(Cl)c1" shows growth below 50%.
Outgoing: n

Incoming: Please let me know if "CC(=O)O[C@H](C[C@H](C(C)C)N(C)C(=O)[C@@H](NC(=O)[C@H]1CCCCN1C)C(C)C)c1nc(C(=O)N[C@@H](Cc2ccccc2)C[C@H](C)C(=O)O)c(C(C)C)s1" shows growth below 50%.
Outgoing: y

Incoming: Please let me know if CC(CC1CCCCC1)NCc1ccccc1 (stereo not given) shows growth below 50%.
Outgoing: n

Incoming: Please let me know if Clc1ccc(CSC(Cn2ccnc2)c2ccc(Cl)cc2Cl)cc1 (stereo not given) shows growth below 50%.
Outgoing: y

Incoming: Please let me know if "O=C(O)C(Cl)(Cl)C(F)(F)F" shows growth below 50%.
Outgoing: n

* * *

- Tested on: HOP-62 NSCLC
- Assay Procedure: NCI-60 one-dose screen, 48 h (100 = growth as untreated, 0 = no growth, -100 = all killed)
- Measurement Setup: 10 µM unless noted
- Protocol: Growth inhibition of the HOP-62 human Non-Small Cell Lung tumor cell line is measured as a screen for anti-cancer activity. Cells are grown in 96 well plates and exposed to the test compound for 48 hours. Compounds are tested at a single concentration, which is 10^-5 M for most compounds. The reported endpoint is percent growth (GI% or GIPRCNT), where numbers from 0 - 100% represent growth inhibition, and numbers from -100% - 0 represent cell death. […]
This is part of a sample that, as a whole, favours compounds with a hit. Of some 83,000 tested, about 20% had one in any assay.
Could you please report measured growth for the items listed next?
Answers are plain numbers, in %.

In the examples that follow, each entry is paired with its recorded growth.
O=C1CNC(c2ccccc2)c2cc(Cl)ccc2N1 (centres undefined)	92
Cc1cc(C)cc(Nc2nc3c(s2)CC[C@@]2(C)C3=CC[C@@H]3[C@@H]2CC[C@]2(C)C(=O)CC[C@@H]32)c1	90
CC(=O)C(c1c(O)c2ccccc2oc1=O)c1cc(=O)oc2c1ccc1ccccc12 (centres undefined)	90.9

// moving on: another record for growth
Please fill in: growth reported for O=C1CC2(CC3(Cl)C(Cl)=C(Cl)C2(Cl)C3(Cl)Cl)C(=O)O1 (centres undefined) = 91.6

* * *

- System: HCT-15 colon
- Assay Procedure: NCI-60 one-dose screen, 48 h
- Measurement Setup: 10 µM unless noted
The panel holds about 83,000 compounds, 20% with a hit somewhere; the sample as a whole holds those more often. The source made the active and inactive calls. The calls were made as follows: active = growth percent below 10; inactive = the rest.
One label from this list, please: active, inactive

NC(=Nc1ccccc1)N[N+](=O)[O-]	inactive
Cc1cc(N(CCCl)CCCl)ccc1C=Nc1ccccc1-c1ccccc1	inactive
N/C(=N\N=C\c1ccc(-c2ccccc2)cc1)N[N+](=O)[O-]	inactive

Incoming: Write down the call the test reported for this molecule. Item: "C/C(=C\c1ccn(-c2ccccc2N)n1)[C@@H]1C[C@@H]2O[C@]2(C)CCC[C@H](C)[C@H](O)[C@@H](C)C(=O)C(C)(C)[C@@H](O)CC(=O)O1"
Outgoing: inactive

Incoming: Write down the call the test reported for this molecule. Item: "O=C1N[C@@H]2[C@@H](O)[C@@H](O)[C@H](O)C[C@H]2c2cc3c(c(O)c21)OCO3"
Outgoing: active

Incoming: Write down the call the test reported for this molecule. Item: O=C1C=C(N2C3C4CCC(C4)C32)C(=O)C=C1c1ccccc1 (configuration not stated)
Outgoing: inactive

Incoming: Write down the call the test reported for this molecule. Item: "CC1=C(CCCOC(=O)CN)C2=C(C)C3(CC3)[C@@](C)(O)C(=O)C2=C1"
Outgoing: inactive

Incoming: Write down the call the test reported for this molecule. Item: "CC(=O)OC[C@]1(C)C=C2C(=O)[C@](C)(O)C3(CC3)C(C)=C2[C@H]1OC(=O)N(C)CCN(C)C(=O)OC(C)(C)C"
Outgoing: active

Incoming: Write down the call the test reported for this molecule. Item: "O=NN1CCCc2cccc(O)c21"
Outgoing: inactive

Incoming: Write down the call the test reported for this molecule. Item: "CC(=O)OCc1cc[c]([Hg][Cl])o1"
Outgoing: active

Incoming: Write down the call the test reported for this molecule. Item: "COC(=O)[C@H](Cc1ccccc1)NC(=O)c1csc([C@@H](C[C@H](C(C)C)N(C)C(=O)[C@@H](NC(=O)[C@H]2CCCN2C)C2CC2)OC(C)=O)n1"
Outgoing: inactive

Incoming: Write down the call the test reported for this molecule. Item: "COC(=O)[C@@H](C[C@H](Cc1ccccc1)NC(=O)c1csc([C@@H](C[C@H](C(C)C)N(C)C(=O)[C@@H](NC(=O)[C@H]2CCCCN2C)C(C)C)OC(C)=O)n1)NC(=O)OCc1ccccc1"
Outgoing: active

* * *

- System: MDA-MB-435 melanoma
- Assay Procedure: NCI-60 one-dose screen, 48 h (100 = growth as untreated, 0 = no growth, -100 = all killed)
- Measurement Setup: 10 µM unless noted
The panel holds about 83,000 compounds, 20% with a hit somewhere; the sample as a whole holds those more often.
Could you please report measured growth for the items listed next?
Give bare numbers, in %.

CC(C)=CC1C(C(=O)OCc2cccc(Oc3ccccc3)c2)C1(C)C (centres undefined)	91.9
CC12CCC=CC1CCC1C2CCC2(C)C(c3ccc(=O)oc3)CCC12O (centres undefined)	-95.2
CC(C)(N)Cc1ccccc1	107
NC(=O)C(Br)c1ccccc1 (centres undefined)	94.1
Clc1cc(N2CC2)nc(N2CC2)n1	93.7

Need growth for each of these molecules.
1. O=C1C2C(C(=O)[N]1[Hg][c]1cccs1)C1(Cl)C(Cl)=C(Cl)C2(Cl)C1(Cl)Cl (centres undefined)
2. C1CCC([PH+](C2CCCCC2)C2CCCCC2[PH+](C2CCCCC2)C2CCCCC2)CC1.[Au].[CH-]1CCCCC1CC1CCCC[N-]1 (centres undefined)
3. COc1cccc2c1c(C(=O)c1ccco1)cn2Cc1ccc(F)cc1
4. CCC(CC)CC1(C)CC2(C)CCOC2OO1 (centres undefined)

Outgoing:
[7.41, -39.2, 148, 109]
